target: T1, human PILRB, ectopically expressed on 293 cells (human, UniProt Q9UKJ0 20-227); assay: flow cytometry, 293 cells expressing target
T1 construct: also called hB
T1 sequence (Q9UKJ0 20-227): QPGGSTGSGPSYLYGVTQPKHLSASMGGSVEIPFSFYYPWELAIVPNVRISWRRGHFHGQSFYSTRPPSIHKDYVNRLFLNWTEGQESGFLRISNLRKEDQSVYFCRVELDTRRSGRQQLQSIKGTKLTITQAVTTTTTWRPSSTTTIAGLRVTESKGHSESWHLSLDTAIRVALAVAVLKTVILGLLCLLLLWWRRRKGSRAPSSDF
Known EC50 of a selection of binders

Here is how some binders turned out for EC50.
>  <binder>
A11 (antibody, V domains shown, phage campaign; same VH/VL as E17) VH: QVQLVQSGAEVKKPGASVKVSCKASGYTFTSYYMHWVRQAPGQGLEWMGWINPNNGDTNYAQKFQGRVTMTRDTSTSTVYMELSSLRSEDTAVYYCARAGYFDWLLDYYGMDVWGQGTTVTVSS VL: DIVMTQSPLSLPVTPGEPASISCRSSQSLLHSNGYNYLDWYLQKPGQSPQLLIYDASNLETGVPDRFSGSGSGTDFTLKISRVEAEDVGVYYCMQALQTPFGPGTKVDIK

>  <measured quantity>
EC50

>  <reported result>
1.1 µg/mL

$$$$
>  <binder>
D6 (antibody, V domains shown, second hybridoma campaign; same VH/VL as D8) VH: EVQLQQSGPELVKPGASVKMSCKASGYTFTDYYMDWVKQSHGESFEWIGRVNPYTGDSSYNQKFKGKATLTVDKSSNTAYLEFNSLTSEGSAVYYCARSDGYHYKYAMDYWGQGTSVTVSS VL: DVVMTQTPLSLPVSLGDQASISCRSSQSLVHSTGNTYLHWYLQKPGQSPNLLIYKISNRFSGVPDRFSGSGSGTDFTLKISRVEAEDLGVYFCSQSTHVPYTFGGGTKLEIK

>  <measured quantity>
EC50

>  <reported result>
0.47 µg/mL

$$$$

Could you now consider this next binder?
Query block: Reported EC50 for E21 (antibody, V domains shown, phage campaign) VH: QVQLVQSGAEVKKPGSSVKVSCKASGYTFSNYDINWVRQAPGQGLEWMGGIIPIFGTANYALKFQGRVTITADESTSTAYMELSSLRSEDTAVYYCARGGPWLYFDYWGQGTLVTVSS VL: DIQMTQSPSSLSASVGDRVTITCRASQSISTYLNWYQQKPGKAPKLLIYAASTLQSGVPSRFSGSGSGTDFTLTISSLQPEDFATYYCQQSYSSPLTFGQGTKLEIK : what is it?
Result block: 3.4 µg/mL
